B1: library; numbered along this chain (parent)
chain: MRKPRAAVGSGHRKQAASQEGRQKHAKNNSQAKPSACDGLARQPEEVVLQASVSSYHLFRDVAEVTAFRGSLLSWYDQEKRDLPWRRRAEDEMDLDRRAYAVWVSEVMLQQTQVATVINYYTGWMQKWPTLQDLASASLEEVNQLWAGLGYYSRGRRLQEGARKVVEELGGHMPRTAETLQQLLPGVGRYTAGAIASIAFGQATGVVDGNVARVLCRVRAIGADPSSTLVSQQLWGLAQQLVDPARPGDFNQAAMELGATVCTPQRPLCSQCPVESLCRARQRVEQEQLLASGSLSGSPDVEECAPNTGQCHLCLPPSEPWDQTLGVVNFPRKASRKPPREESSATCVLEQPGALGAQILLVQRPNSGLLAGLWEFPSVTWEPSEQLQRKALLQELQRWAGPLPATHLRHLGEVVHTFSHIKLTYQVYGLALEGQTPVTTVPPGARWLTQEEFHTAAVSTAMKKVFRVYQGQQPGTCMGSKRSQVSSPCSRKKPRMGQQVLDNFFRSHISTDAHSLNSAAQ

Variants of: B1
Assay: 8OG:A repair function score (normalized; synonymous = 0, nonsense = -1) (normalized log-likelihood score); higher = more repair activity (WT-like);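 note: cells sorted at 72 h after reporter transfection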
Details: with 8OG:A DNA repair reporter (GFP) in HEK-293 MUTYH KO cells
Each entry gets rule not met if its 8OG:A repair function score stays under -0.1, and rule met if its 8OG:A repair function score is -0.1 or above.

Illustrative cases are given below, each with its answer.
[[record]]
mutation_name = "V230L"
assigned_class = "rule not met"

[[record]]
mutation_name = "A101Q"
assigned_class = "rule not met"

[[record]]
mutation_name = "F68I"
assigned_class = "rule not met"

[[record]]
mutation_name = "V362T"
assigned_class = "rule met"

[[record]]
mutation_name = "N503E"
assigned_class = "rule met"

[[record]]
mutation_name = "Q181S"
assigned_class = "rule met"

[[record]]
mutation_name = "V327I"
assigned_class = "rule not met"


Query: Hi team, for A41N , is the recorded 8OG:A repair function score at or above -0.1?
Result: rule met

# credit: the supplement of paper PMC11908140
